system: TK-10 renal; test: NCI tumour cell line growth inhibition, 48 h
Parameter: TGI. Scope: all listed entries.

Examples with their reported TGI follow.
INSERT INTO assay_data (molecule, measurement_kind, value_measured) VALUES
  ('CSC(=NC#N)S/C=C/C(=O)c1cccc2ccccc12', 'TGI', '45.4 µM'),
  ('O=C1OC(C2Cc3ccc4c(c3C2=O)CCCC4)c2ccccc21 (centres undefined)', 'TGI', '> 100 µM'),
  ('CC(=O)c1sc2n(C)c(=O)c3ccccc3[n+]2c1C', 'TGI', '> 100 µM'),
  ('COC1=CC(=O)c2c(n[nH]c2CCNC(=O)OCc2ccccc2)C1=O', 'TGI', '70.6 µM');

INPUT: Item CC(=O)OCC1OC(n2c(=S)n(-c3ccccc3)c(=S)c3ccccc32)C(OC(C)=O)C(OC(C)=O)C1OC(C)=O (centres undefined) has what recorded TGI?
OUTPUT: > 100 µM

INPUT: And then `Cc1ncc([N+](=O)[O-])n1CCNC(=O)Cn1ccnc1[N+](=O)[O-]` , what is it?
OUTPUT: > 100 µM

INPUT: And then CCOC(=O)C(O)Cc1cnc2ccccc2n1 (centres undefined) , what is it?
OUTPUT: > 100 µM

INPUT: And then CC(C)(C)OC(=O)NC(Cc1ccc(OCc2ccccc2)cn1)C(=O)O (centres undefined) , what is it?
OUTPUT: > 100 µM

INPUT: And then COc1cc(/C=C2\C(=O)N(c3ccc(NC(C)=O)cc3)C(c3ccccc3)S2(=O)=O)cc(OC)c1OC (centres undefined) , what is it?
OUTPUT: > 100 µM

INPUT: And then CN1C(=O)C(C#N)C2C[C@@]1(C)Oc1ccccc12 (some centres undefined) , what is it?
OUTPUT: > 100 µM

INPUT: And then `COC(=O)/C=C/c1ccc2c(c1)[C@H](C(=O)OC)[C@@H](c1ccc(O)cc1)O2` , what is it?
OUTPUT: > 100 µM

INPUT: And then `O=C(/C=N/O)Nc1ccc(Cl)c(I)c1` , what is it?
OUTPUT: > 100 µM

INPUT: And then COc1ccc(OC2OC(CO)C(O)C(O)C2O)cc1 (centres undefined) , what is it?
OUTPUT: > 100 µM

INPUT: And then `Cc1ncc(COP(=O)(O)O)c(C)c1O` , what is it?
OUTPUT: > 100 µM

INPUT: And then `CCOc1ccc(N=Nc2ccc(-c3ccc(N=Nc4c(O)ccc5cc(S(=O)(=O)O)cc(S(=O)(=O)O)c45)cc3)cc2)cc1` , what is it?
OUTPUT: > 100 µM

INPUT: And then CC(C)(C)OC(=O)NC(Cc1ccc(OCc2ccccc2)cn1)C(N)=O (centres undefined) , what is it?
OUTPUT: > 100 µM

INPUT: And then O=C(NN1C(=O)C(Cl)C1c1cccc(Cl)c1)c1ccccc1O (centres undefined) , what is it?
OUTPUT: > 100 µM

INPUT: And then `CC(=O)Oc1cc(/C=C/c2ccc(O)cc2)cc(OC(C)=O)c1` , what is it?
OUTPUT: > 100 µM

INPUT: And then COCCNC1CCC(=O)c2[nH]c3ccccc3c21 (centres undefined) , what is it?
OUTPUT: > 100 µM

INPUT: And then `COc1cc2oc(-c3cccc(C(=O)Nc4ccc(C)cc4)c3)cc(=O)c2c(OC)c1OC` , what is it?
OUTPUT: > 100 µM

###

system: NCI-H522 lung; assay: NCI tumour cell line growth inhibition, 48 h
measurement_kind: TGI (µM)
Give the value in µM but do not write µM after it.

INSERT INTO results (molecule, value_measured) VALUES
  ('C=CCN(N=O)C(=O)N(CCCCC(NC(C)=O)C(=O)NCc1ccccc1)Cc1ccccc1 (stereo not given)', 39.9),
  ('O=S1(=O)c2ccccc2-c2nccc3ccnc1c23', 29.9),
  ('COc1cc(O)c2c(=O)c(OC)c(-c3ccc(OC)c(OC)c3)oc2c1.[Zn+2]', 24.1);

INPUT: Item `O=c1cc(-c2ccc3ccccc3c2)[nH]c2ncccc12` has what recorded TGI?
OUTPUT: 46

INPUT: And then Oc1cc2c(cc1C(c1ccc3c(c1)OCO3)N1CCN(C(c3ccc4c(c3)OCO4)c3cc4c(cc3O)OCO4)CC1)OCO2 (stereo not given) , what is it?
OUTPUT: 33.5

###

Parameter: GI50. Scope: all listed entries.
system: OVCAR-3 ovarian; experiment: NCI tumour cell line growth inhibition, 48 h

Examples with their reported GI50 follow.
INSERT INTO measurements (molecule, value_measured) VALUES
  ('COc1cc(O)c2c(=O)c(OC)c(-c3ccc(OC)c(OC)c3)oc2c1.[Zn+2]', '14.1 µM'),
  ('CC1=C/C(O)CC(=O)Cc2nc(co2)C(=O)N2CCC=C2C(=O)OC(C(C)C)C(C)/C=C\C(=O)NC/C=C\1 (stereo not given)', '13.6 µM'),
  ('NC(=S)N/N=C/c1ccc(OC(=O)COc2ccccc2)cn1', '2.17 µM'),
  ('COc1ccc(C2SCC(=O)N2NC(=O)C(O)c2ccccc2)cc1 (stereo not given)', '> 100 µM');

INPUT: Item `Cc1nc2ccccc2c(/C=C/c2ccccc2)c1C(=O)/C=C/c1ccc(Cl)cc1` has what recorded GI50?
OUTPUT: 1.48 µM

###

tested on: COLO 205 colon; assay: NCI tumour cell line growth inhibition, 48 h
measurement_kind: TGI (µM)
Give the value in µM but do not write µM after it.

Examples with their reported TGI follow.
INSERT INTO assay_data (compound, assay_system, value_measured) VALUES
  ('CC(=O)Oc1ccccc1C(=O)NCCC[Se]C#N', 'COLO 205 colon', 29.9),
  ('Cc1cccc2cc3cccc(C(=O)NCCN(C)C)c3nc12', 'COLO 205 colon', 1.75),
  ('C[n+]1cc2cc3c(cc2c2ccccc21)OCO3', 'COLO 205 colon', 24),
  ('Cn1c(-c2cccs2)cc(-c2ccsc2)c1-c1cccs1', 'COLO 205 colon', 46.5),
  ('COc1cc2oc(-c3cccc(C(=O)Nc4ccc(C)cc4)c3)cc(=O)c2c(OC)c1OC', 'COLO 205 colon', 2.6),
  ('C=C1C(=O)O[C@H]2[C@H]1CC/C(COC(=O)C(=O)c1c[nH]c3ccc(Cl)cc13)=C\CC[C@@]1(C)O[C@@H]21', 'COLO 205 colon', 4.58),
  ('O=C(/C=C/c1ccc(O)cc1)c1cc(-c2cc(CCC(=O)c3ccc(O)cc3O)ccc2O)c(O)cc1O', 'COLO 205 colon', 22.6);

INPUT: Item C=CCN(N=O)C(=O)N(CCCCC(NC(C)=O)C(=O)NCc1ccccc1)Cc1ccccc1 (stereo not drawn) has what recorded TGI?
OUTPUT: 51.7

###

system: DU-145 prostate; experiment: NCI tumour cell line growth inhibition, 48 h
Parameter: TGI. Scope: all listed entries.

Examples with their reported TGI follow.
INSERT INTO results (compound, assay_system, measurement_kind, value_measured) VALUES
  ('COc1ccc(OC2OC(CO)C(O)C(O)C2O)cc1 (stereo not given)', 'DU-145 prostate', 'TGI', '> 100 µM'),
  ('O=c1[nH]c2cc3[nH]c(=O)c(=O)[nH]c3cc2[nH]c1=O', 'DU-145 prostate', 'TGI', '> 100 µM'),
  ('CNC1=CC(=O)C2=C(C1=O)C1C3=C(C(=O)C(Br)=C(OC)C3=O)C2c2ccccc21 (stereo not given)', 'DU-145 prostate', 'TGI', '20.8 µM'),
  ('CC(C)(C)OC(=O)NC(Cc1ccc(OCc2ccccc2)cn1)C(N)=O (stereo not given)', 'DU-145 prostate', 'TGI', '> 100 µM'),
  ('CCNC1=C(NC(=O)c2ccc(OC)cc2)C(=O)c2ccccc2C1=O', 'DU-145 prostate', 'TGI', '> 100 µM');

INPUT: Item `CN(C)CCCN1c2ccc(O)cc2Sc2ccc(Cl)cc21` has what recorded TGI?
OUTPUT: 31.8 µM

INPUT: And then CC(=O)c1c(C)cc2cccc(OC3OC(CO)C(O)C(O)C3O)c2c1O (stereo not given) (tested in a mixture with another compound) , what is it?
OUTPUT: > 100 µM

INPUT: And then CC(C)N(C(=O)C12C3(C(=O)C(C)(C)C)C4C5(C#N)C3C1(C(=O)C(C)(C)C)C5C42C(=O)C(C)(C)C)C(C)C (stereo not given) , what is it?
OUTPUT: > 100 µM

INPUT: And then COc1cccc2c1C(=O)c1c(O)c3c(c(O)c1C2=O)C[C@@](O)(C(C)=O)C[C@@H]3OC1CC(O)C(O)C(C)O1 (stereo not given in full) , what is it?
OUTPUT: 8.55 µM

INPUT: And then `CCN(CC)c1ccc2cc(-c3csc(C)n3)c(=O)oc2c1` , what is it?
OUTPUT: > 100 µM

Sourced from PubChem BioAssay (NCI)
